system: IL 1-induced release of neutral protease from rabbit articular chondrocytes; assay: inhibition of IL 1-induced release of neutral protease from rabbit articular chondrocytes (azocoll assay); assay type: cell-based, rabbit (New Zealand White); settings: Oryctolagus cuniculus, Chondrocyte; 10 μM; compound added 10 min before human IL 1; 24 h stimulation; read-out: % Inhibition (I.S.D.)
Label scheme for inhibition at 10 µM: lower than 40% is condition not met, 40% and above is condition met.

# compound, class_name
rows = [
    ("CN1CCc2nc3cc(Cl)ccc3c(NNc3ccccc3)c2C1 [Example 7]", "condition met"),
    ("CN1CCc2nc3cc(Cl)ccc3c(NCCN3CCOCC3)c2C1 [Example 13]", "condition not met"),
    ("CN1CCc2nc3cc(Cl)ccc3c(Sc3ccccc3)c2C1 [Example 17]", "condition met"),
    ("CCCCCCCCN1CCc2nc3cc(Cl)ccc3c(Cl)c2C1 [Example 2]", "condition met"),
    ("CCCCN1CCc2nc3cc(Cl)ccc3c(Cl)c2C1 [Example 1]", "condition not met"),
    ("C=CCN1CCc2nc3cc(Cl)ccc3c(NNc3ccccc3)c2C1 [Example 10, dihydrate]", "condition met"),
    ("COCCNc1c2c(nc3cc(Cl)ccc13)CCN(C)C2 [Example 12, hydrate]", "condition met"),
    ("CN1CCc2nc3ccc(Cl)cc3c(SCCCN)c2C1 [Example 21]", "condition met"),
    ("C=CCCCN1CCc2nc3cc(Cl)ccc3c(NNc3ccccc3)c2C1 [Example 11, sesquihydrate]", "condition not met"),
]
